system under test: SARS-COV-2 Spike, D614G (SARS-COV-2, UniProt P0DTC2 14-1273)
method description: cell-based or functional assay
Reported Fold Change over R10933 + R10987 against D614G by item:
Returns: string containing the numeric result and its unit.

Here's what some known entries look like.
* REGN10933 (antibody, V domains shown) VH: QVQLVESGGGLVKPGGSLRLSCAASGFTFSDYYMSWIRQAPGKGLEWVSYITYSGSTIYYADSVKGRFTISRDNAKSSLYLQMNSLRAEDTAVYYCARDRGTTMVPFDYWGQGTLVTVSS VL: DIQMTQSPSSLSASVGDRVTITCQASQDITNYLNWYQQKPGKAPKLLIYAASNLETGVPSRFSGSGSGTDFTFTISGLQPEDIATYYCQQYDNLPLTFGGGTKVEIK | 1.98 fold
* REGN10987 (antibody, V domains shown) VH: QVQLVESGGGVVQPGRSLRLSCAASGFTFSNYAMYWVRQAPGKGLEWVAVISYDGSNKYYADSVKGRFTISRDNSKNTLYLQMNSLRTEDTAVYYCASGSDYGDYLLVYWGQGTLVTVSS VL: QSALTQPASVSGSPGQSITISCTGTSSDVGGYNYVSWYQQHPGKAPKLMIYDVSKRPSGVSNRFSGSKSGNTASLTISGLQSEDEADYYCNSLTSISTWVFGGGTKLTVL | 0.89 fold
* REGN14315 (antibody, V domains shown) VH: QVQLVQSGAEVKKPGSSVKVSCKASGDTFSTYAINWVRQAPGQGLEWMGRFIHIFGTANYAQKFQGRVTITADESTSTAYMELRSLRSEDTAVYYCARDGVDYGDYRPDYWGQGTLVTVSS VL: EIVLTQSPGTLSLSPGERATLSCRASQSVSSNYLAWYQQKPGQAPRLLIYGASSRATGIPERFSGSGSGTDFTLTISRLEPEDFAVYYCQQYGSSLYTFGQGTKLEIK | 0.6 fold
* REGN14287 (antibody, V domains shown) VH: QVQLVQSGAEVKKPGSSVKVSCKASGGTFSNNAISWVRQAPGQGLEWMGKIIPILGIGGDAQKFQGRFTITADKSTSTAYMELSSLRSEDTAVYYCANSGDSRPHAFDIWGQGTMVTVSS VL: QSALTQPASVSGSPGQSITISCTGTSSDVGSYNLVSWYQQHPGKAPKLMIYEVSKRPSGVSNRFSGSKSGNTASLTISGLQAEDEADYYCSSYAGSRREVFGGGTKLTVL | 6.18 fold

For the next question, use this binder.
Given the entry REGN14256 (antibody, V domains shown) VH: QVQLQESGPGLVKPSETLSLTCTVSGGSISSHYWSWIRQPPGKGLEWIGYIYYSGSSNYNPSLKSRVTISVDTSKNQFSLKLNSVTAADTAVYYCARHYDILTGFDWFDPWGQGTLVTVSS VL: QSVLTQPPSVSGAPGQRVTISCTGSSSNIGTHYDVHWYQQLPGTAPKLLIYGNSNRPSGVPDRFSGSKSGTSASLAITGLQAEDEADYYCQSFDNSLTAPYVFGTGTKVTVL , report its measured Fold Change over R10933 + R10987 against D614G.
0.77 fold

The reported numbers originate from patent US20240309072A1.
